System: MOLM13
Experiment: MTS assay for cell growth/viability, MOLM13
Format: cell-based
Details: Homo sapiens, MOLM-13, 96 hours
pIC50: −log10 of the molar value.
endpoint_label: pIC50

a. CCOc1ccc(-c2ccc(-c3cc(C(=O)O)c4cc(F)ccc4n3)cn2)cc1
b. CCOc1ccc(-c2ccc(-c3cc(C(=O)O)c4cc(F)ccc4n3)nc2)cc1
Exercise: Please indicate which item has the smaller measured pIC50: a versus b State the label of the item chosen.
Key: a
(a: 5.27, b: 6.24)

---

Molecular target: recombinant human DHODH (Homo sapiens, UniProt Q02127)
Sequence (Q02127 whole entry): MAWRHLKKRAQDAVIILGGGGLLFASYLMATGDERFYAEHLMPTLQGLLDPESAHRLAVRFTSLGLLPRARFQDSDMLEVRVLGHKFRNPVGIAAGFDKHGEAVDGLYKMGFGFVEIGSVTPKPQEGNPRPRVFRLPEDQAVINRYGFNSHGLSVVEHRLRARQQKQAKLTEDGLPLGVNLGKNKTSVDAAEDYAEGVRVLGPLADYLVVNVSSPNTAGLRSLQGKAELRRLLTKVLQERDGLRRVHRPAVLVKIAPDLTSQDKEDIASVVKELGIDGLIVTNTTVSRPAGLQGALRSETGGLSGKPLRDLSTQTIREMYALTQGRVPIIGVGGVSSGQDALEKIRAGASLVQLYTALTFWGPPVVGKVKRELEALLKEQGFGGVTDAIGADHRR
Assay: DHODH enzymatic assay (DCIP reduction)
Details: recombinant human enzyme, 25° C.; read-out: h-DHODH IC50
pIC50: −log10 of the molar value.
endpoint_label: pIC50

- molecule: "CCOc1ccc(-c2ccc(-c3cc(C(=O)O)c4cc(F)ccc4n3)cn2)cc1 [Cpd1]"
  system_name: "recombinant human DHODH (Homo sapiens, UniProt Q02127)"
  pIC50: 6.20
- molecule: "CCOc1ccc(-c2ccc(-c3cc(C(=O)O)c4cc(F)ccc4n3)nc2)cc1 [Cpd2]"
  system_name: "recombinant human DHODH (Homo sapiens, UniProt Q02127)"
  pIC50: 6.50
- molecule: "CCOc1ccc(-c2cnc(-c3cc(C(=O)O)c4cc(F)ccc4n3)cn2)cc1 [Cpd4]"
  system_name: "recombinant human DHODH (Homo sapiens, UniProt Q02127)"
  pIC50: 6.30

1. CCOc1cccc(-c2cnc(-c3cc(C(=O)O)c4cc(F)ccc4n3)nc2)c1 [Cpd6]
2. CCOc1cccc(-c2ccc(-c3cc(C(=O)O)c4cc(F)ccc4n3)nn2)c1 [Cpd7]
3. CCOc1ccc(-c2ccc(-c3cc(C(=O)O)c4cc(F)ccc4n3)nn2)cc1 [Cpd5]
Exercise: List from greatest to least pIC50. Dear reader, please state the labels in the requested order.
Key: 2, 1, 3
(2: 6.22, 1: 5.74, 3: 5.32)

---

System: OCI-AML3
Experiment: MTS assay for cell growth/viability, OCI-AML3
Assay type: cell-based
Conditions: Homo sapiens, OCI-AML-3, 96 hours
endpoint_label: IC50 (µM)

a. CCOc1ccc(-c2ccc(-c3cc(C(=O)O)c4cc(F)ccc4n3)nc2)cc1 [Cpd2]
b. CCOc1ccc(-c2cnc(-c3cc(C(=O)O)c4cc(F)ccc4n3)nc2)cc1 [Cpd3]
Exercise: Please indicate which item has the smaller measured IC50: a versus b State the label of the item chosen.
Key: a
(a: 0.709 µM, b: 3.64 µM)

1. CCOc1ccc(-c2ccc(-c3cc(C(=O)O)c4cc(F)ccc4n3)cn2)cc1 [Cpd1]
2. CCOc1ccc(-c2cnc(-c3cc(C(=O)O)c4cc(F)ccc4n3)cn2)cc1 [Cpd4]
Exercise: Out of 1 and 2 , name the one with the higher IC50. State the label of the item chosen.
Key: 1
(1: 4.32 µM, 2: 2.1 µM)

---

IC50 values, listed per item
Test system: OCI-AML3
Assay: MTS assay for cell growth/viability, OCI-AML3
Format: cell-based
Details: Homo sapiens, OCI-AML-3, 96 hours

// worked examples, IC50 included
- item_smiles: "CCOc1cccc(-c2ccc(-c3cc(C(=O)O)c4cc(F)ccc4n3)nn2)c1"
  IC50: "> 10 µM"
- item_smiles: "CCOc1ccc(-c2ccc(-c3cc(C(=O)O)c4cc(F)ccc4n3)nn2)cc1"
  IC50: "> 10 µM"

Exercise: Which IC50 value is on record for CCOc1cccc(-c2cnc(-c3cc(C(=O)O)c4cc(F)ccc4n3)nc2)c1 ?
Key: > 10 µM
